Value source: ChEMBL document CHEMBL1909281

Tested on: Hepatotoxicity
Test: FDA Liver Toxicity Knowledge Base Benchmark Dataset (LTKB-BD) drugs of most concern for DILI
parameter: LTKB_BD DILI severity score

{"molecule": "O=C(O)c1cn(C2CC2)c2cc(N3CCNCC3)c(F)cc2c1=O", "parameter": "LTKB_BD DILI severity score", "observed.measurement": 7}
{"molecule": "CC(O)(CS(=O)(=O)c1ccc(F)cc1)C(=O)Nc1ccc(C#N)c(C(F)(F)F)c1 (configuration not stated) [BICALUTAMIDE]", "parameter": "LTKB_BD DILI severity score", "observed.measurement": 8}
{"molecule": "CC(c1cc2ccccc2s1)N(O)C(N)=O (configuration not stated)", "parameter": "LTKB_BD DILI severity score", "observed.measurement": 5}
{"molecule": "NNC(=O)c1ccncc1", "parameter": "LTKB_BD DILI severity score", "observed.measurement": 8}
{"molecule": "CN(N=O)C(=O)N[C@@H](C=O)[C@@H](O)[C@H](O)[C@H](O)CO", "parameter": "LTKB_BD DILI severity score", "observed.measurement": 3}
{"molecule": "CN(C/C=C/C#CC(C)(C)C)Cc1cccc2ccccc12", "parameter": "LTKB_BD DILI severity score", "observed.measurement": 8}
{"molecule": "C[C@@](Cc1ccc(O)c(O)c1)(NN)C(=O)O.O", "parameter": "LTKB_BD DILI severity score", "observed.measurement": 4}
{"molecule": "CS(=O)(=O)CCNCc1ccc(-c2ccc3ncnc(Nc4ccc(OCc5cccc(F)c5)c(Cl)c4)c3c2)o1", "parameter": "LTKB_BD DILI severity score", "observed.measurement": 8}
{"molecule": "CC(C(=O)O)c1cccc(Oc2ccccc2)c1 (configuration not stated)", "parameter": "LTKB_BD DILI severity score", "observed.measurement": 8}
{"molecule": "Cc1cn([C@H]2C[C@H](N=[N+]=[N-])[C@@H](CO)O2)c(=O)[nH]c1=O", "parameter": "LTKB_BD DILI severity score", "observed.measurement": 8}
{"molecule": "CCc1cccc2c3c([nH]c12)C(CC)(CC(=O)O)OCC3 (configuration not stated)", "parameter": "LTKB_BD DILI severity score", "observed.measurement": 8}
{"molecule": "C[C@]12COC(=O)C[C@@H]1CC[C@@H]1[C@@H]2CC[C@@]2(C)[C@H]1CC[C@]2(C)O", "parameter": "LTKB_BD DILI severity score", "observed.measurement": 8}
{"molecule": "Cc1cc(NS(=O)(=O)c2ccc(N)cc2)no1", "parameter": "LTKB_BD DILI severity score", "observed.measurement": 7}
{"molecule": "Nc1ccn([C@@H]2CS[C@H](CO)O2)c(=O)n1", "parameter": "LTKB_BD DILI severity score", "observed.measurement": 8}
{"molecule": "C#C[C@]1(O)CC[C@H]2[C@@H]3CCC4=Cc5oncc5C[C@]4(C)[C@H]3CC[C@@]21C", "parameter": "LTKB_BD DILI severity score", "observed.measurement": 8}
{"molecule": "Cc1cc(C(=O)NNCc2ccccc2)no1", "parameter": "LTKB_BD DILI severity score", "observed.measurement": 5}
{"molecule": "O=C(O)c1ccc(-n2nc(-c3ccccc3O)nc2-c2ccccc2O)cc1", "parameter": "LTKB_BD DILI severity score", "observed.measurement": 7}
{"molecule": "CCCCc1oc2ccccc2c1C(=O)c1cc(I)c(OCCN(CC)CC)c(I)c1", "parameter": "LTKB_BD DILI severity score", "observed.measurement": 8}
{"molecule": "CC[C@H]1OC(=O)[C@H](C)[C@@H](O[C@H]2C[C@@](C)(OC)[C@@H](O)[C@H](C)O2)[C@H](C)[C@@H](O[C@@H]2O[C@H](C)C[C@H](N(C)C)[C@H]2O)[C@](C)(O)C[C@@H](C)C(=O)[C@H](C)[C@@H](O)[C@]1(C)O", "parameter": "LTKB_BD DILI severity score", "observed.measurement": 5}
{"molecule": "CC(C)(C)NC(=O)[C@@H]1CN(Cc2cccnc2)CCN1C[C@@H](O)C[C@@H](Cc1ccccc1)C(=O)N[C@H]1c2ccccc2C[C@H]1O.O", "parameter": "LTKB_BD DILI severity score", "observed.measurement": 8}
{"molecule": "CC(=O)O[C@@]12CO[C@@H]1C[C@H](O)[C@@]1(C)C(=O)[C@H](O)C3=C(C)[C@@H](OC(=O)[C@H](O)[C@@H](NC(=O)OC(C)(C)C)c4ccccc4)C[C@@](O)([C@@H](OC(=O)c4ccccc4)[C@H]21)C3(C)C.O.O.O", "parameter": "LTKB_BD DILI severity score", "observed.measurement": 8}
{"molecule": "CC(=O)N1CCN(c2ccc(OCC3COC(Cn4ccnc4)(c4ccc(Cl)cc4Cl)O3)cc2)CC1 (configuration not stated)", "parameter": "LTKB_BD DILI severity score", "observed.measurement": 8}
{"molecule": "O=c1[nH]cnc2c1ncn2[C@H]1CC[C@@H](CO)O1", "parameter": "LTKB_BD DILI severity score", "observed.measurement": 8}
{"molecule": "CO[C@H]1/C=C/O[C@@]2(C)Oc3c(C)c(O)c4c(O)c(c(/C=N/N5CCN(C)CC5)c(O)c4c3C2=O)NC(=O)/C(C)=C\\C=C\\[C@H](C)[C@H](O)[C@@H](C)[C@@H](O)[C@@H](C)[C@H](OC(C)=O)[C@@H]1C", "parameter": "LTKB_BD DILI severity score", "observed.measurement": 8}
{"molecule": "CCN(CC)CCNC(=O)c1c(C)[nH]c(/C=C2\\C(=O)Nc3ccc(F)cc32)c1C", "parameter": "LTKB_BD DILI severity score", "observed.measurement": 8}
{"molecule": "C[C@](N)(Cc1ccc(O)c(O)c1)C(=O)O", "parameter": "LTKB_BD DILI severity score", "observed.measurement": 8}
{"molecule": "CC1=C(CC(=O)O)c2cc(F)ccc2/C1=C\\c1ccc([S+](C)[O-])cc1 (configuration not stated)", "parameter": "LTKB_BD DILI severity score", "observed.measurement": 8}
{"molecule": "CC(CCc1ccccc1)NCC(O)c1ccc(O)c(C(N)=O)c1 (configuration not stated)", "parameter": "LTKB_BD DILI severity score", "observed.measurement": 8}
{"molecule": "COC(c1ccccc1)(c1ccccc1)[C@H](Oc1nc(C)cc(C)n1)C(=O)O", "parameter": "LTKB_BD DILI severity score", "observed.measurement": 5}
{"molecule": "NC(=O)OCC(COC(N)=O)c1ccccc1 [FELBAMATE]", "parameter": "LTKB_BD DILI severity score", "observed.measurement": 7}
{"molecule": "O=C1CN(/N=C/c2ccc(-c3ccc([N+](=O)[O-])cc3)o2)C(O)=N1", "parameter": "LTKB_BD DILI severity score", "observed.measurement": 8}
{"molecule": "C[C@]12C/C(=C/O)C(=O)C[C@@H]1CC[C@@H]1[C@@H]2CC[C@@]2(C)[C@H]1CC[C@]2(C)O", "parameter": "LTKB_BD DILI severity score", "observed.measurement": 8}
